FYI, the data here is from the Immune Epitope Database (IEDB).

Target: HLA-A*31:01
Assay: IEDB peptide-MHC binding, purified MHC/competitive/fluorescence; filed as Kd, often an IC50 or EC50 that approximates it; bounds were set here for any values at or beyond the usual limits of such assays
Conditions: source organism: Orthohantavirus dobravaense
Assay Metric: Kd

1. VIGFLALAK : ≥ 20 µM

###

Target: HLA-A*31:01
Assay: IEDB peptide-MHC binding, purified MHC/competitive/fluorescence; filed as Kd, often an IC50 or EC50 that approximates it; bounds were set here for any values at or beyond the usual limits of such assays
Details: source organism: Yellow fever virus
pKd: −log10 of the molar value.
Assay Metric: pKd

1) TINAVASRK : 6.10

###

Biological target: HLA-B*44:02
Experiment: IEDB peptide-MHC binding, purified MHC/direct/fluorescence; filed as Kd, often an IC50 or EC50 that approximates it; bounds were set here for any values at or beyond the usual limits of such assays
Conditions: source organism: Escherichia coli O157:H7
Assay Metric: Kd

1) ADLRFASEF : ≥ 20 µM

###

Molecular target: HLA-A*33:01
Assay: IEDB peptide-MHC binding, purified MHC/competitive/radioactivity; filed as Kd, often an IC50 or EC50 that approximates it; bounds were set here for any values at or beyond the usual limits of such assays
Details: source organism: SARS coronavirus Tor2
Entries and their measured Kd follow.
Assay Metric: Kd (µM)

1. DLKWARFPK : 0.02
2. GFDAWFSQR : 0.654
3. ITAKETLYR : 1.08
4. VFAQVKQMYK : 0.863
5. CAAYYFMKFR : 0.141
6. SVLNDILSR : 5.66
7. AQPCSDKAYK : 9.49
8. VFLILCFTIK : 4.07
9. SLLRSTSQK : 14.7

###

Target: HLA-B*27:05
Assay: IEDB peptide-MHC binding, purified MHC/direct/fluorescence; filed as Kd, often an IC50 or EC50 that approximates it; bounds were set here for any values at or beyond the usual limits of such assays
Details: source organism: SARS-CoV1
pKd: −log10 of the molar value.
Assay Metric: pKd

1. SRYWEPEFY : 5.93

###

Target: HLA-B*58:01
Assay: IEDB peptide-MHC binding, purified MHC/competitive/radioactivity; filed as Kd, often an IC50 or EC50 that approximates it; bounds were set here for any values at or beyond the usual limits of such assays
Settings: source organism: Dengue virus 2 Jamaica/1409/1983
Entries and their measured Kd follow.
Assay Metric: Kd (nM)

1) MKITAEWLW : 5.43
2) TSSQQKADW : 186
3) GSSIGQMFET : 1510

###

Biological target: HLA-B*15:01
Experiment: IEDB peptide-MHC binding, purified MHC/competitive/fluorescence; filed as Kd, often an IC50 or EC50 that approximates it; bounds were set here for any values at or beyond the usual limits of such assays
Details: source organism: Four Corners hantavirus
pKd: −log10 of the molar value.
Assay Metric: pKd

1) KSAFYQSYL : ≤ 4.70

###

Molecular target: HLA-B*15:03
Experiment: IEDB peptide-MHC binding, purified MHC/competitive/radioactivity; filed as Kd, often an IC50 or EC50 that approximates it; bounds were set here for any values at or beyond the usual limits of such assays
Conditions: source organism: Vaccinia virus WR
Assay Metric: log10 Kd (log10 of the value in nM)

1. KMYACKNDM : 1.63
2. RKYGCGNMF : 0.10
3. AANCFGQHV : 1.34
4. AVVRFRTHF : 2.28
5. FQSMHFTDM : 0.71
6. FMASPENVI : 0.80
7. FKVLDGSPI : -0.09
8. LMVSGPNVV : 0.58
9. MKYCSYQSF : 0.19
10. SPVMSGNSY : 2.56
11. KMTRVFNKF : -0.37
12. SSMKGENVF : 1.67
13. LLSRFFNMI : 2.91
